Listing: IC50 of selected compounds
- target.entity: ROCK2 (Homo sapiens (Human))
- assay.comment: biochemical

Problem: Entry COc1cc(F)cc(NC2CCN(c3ccc(-c4cn[nH]c4)c(C#N)c3)C2=O)c1 (single isomer, unassigned) [Example 374] needs its IC50 filled in; supply it.
Solution: 100 to 2200 nM

Problem: Find the measured IC50 of COc1nc(N2CCC(Nc3cnn(C(C)C)c3)C2=O)ccc1-c1cn[nH]c1 (racemic) [Example 272] and report it.
Solution: 100 to 2200 nM

Problem: Identify the reported IC50 for the following entry. COc1cc(F)cc(NC2CCN(c3ccc(-c4cn[nH]c4)cn3)C2=O)c1 (single isomer, unassigned) [Example 88]
Solution: < 10 nM

Problem: Check the records and state IC50 for COc1cccc(NC2CCN(c3ccc(-c4ccnc5[nH]ccc45)cc3)C2=O)c1 (single isomer, unassigned) [Example 80]
Solution: 100 to 2200 nM

###

Observed IC50, system ROCK2 (Homo sapiens (Human)).

compound: COc1ccc(F)c(NC2CCN(c3ccc(-c4cn[nH]c4)cc3)C2=O)c1 (single isomer, unassigned) [Example 240]
result: 10 to 100 nM
--
compound: CCOc1cccc(NC2CCN(c3ccc(-c4cn[nH]c4)c(OC)n3)C2=O)c1 (single isomer, unassigned) [Example 219]
result: < 10 nM
--
compound: COc1cc(NC2CCN(c3ccc(-c4cn[nH]c4)c(C)n3)C2=O)ccc1F (single isomer, unassigned) [Example 195]
result: 10 to 100 nM

Now look at this one.
Problem: Give measured IC50 for COc1cc(NC2CCN(c3ccc(-c4cn[nH]c4)nc3)C2=O)ccc1F (single isomer, unassigned) [Example 300] (ROCK2 (Homo sapiens (Human))).
Solution: 10 to 100 nM

###

- target.entity: UniProtKB O75116
- assay.comment: biochemical
pIC50: −log10 of the molar value. Counter-ions that a name gives are not always drawn.
measured.endpoint: pIC50

Field: example entries. Status: answers known.
compound: COc1cccc2c1N(C1CCN(c3ccc(-c4cn[nH]c4)cc3)C1=O)CC2 (single isomer, unassigned) [Example 51]
target.entity: UniProtKB O75116
pIC50: 7.00 to 8.00

compound: COc1cc(F)cc(NC2CCN(c3ncc(-c4cn[nH]c4)cc3F)C2=O)c1 (single isomer, unassigned)
target.entity: UniProtKB O75116
pIC50: 5.66 to 7.00

Problem: Report its pIC50 with UniProtKB O75116 as the test system: COc1cc(N2CCC(Nc3cccc(F)c3OC)C2=O)ccc1-c1cn[nH]c1 (single isomer, unassigned) [Example 150]
Solution: 5.66 to 7.00

Problem: Report value: pIC50, system: UniProtKB O75116, compound: COc1nc(N2CCC(N3CCOc4ccccc43)C2=O)ccc1-c1cn[nH]c1 (single isomer, unassigned) [Example 230]
Solution: > 8.00

Problem: Enter pIC50 (test system UniProtKB O75116) for COc1ccc(C(=O)OC2CCN(c3ccc(-c4cn[nH]c4)cc3)C2=O)c(N)c1 (racemic)
Solution: 5.66 to 7.00

Problem: Name the value of pIC50 reported for COc1nc(N2CCC(N3CCc4ccccc4C3)C2=O)ccc1-c1cn[nH]c1 (racemic) when tested on UniProtKB O75116.
Solution: 5.66 to 7.00

Problem: Specify the recorded pIC50 for COc1cc(NC2CCN(c3ccc(-c4cn[nH]c4)c(C(F)F)c3)C2=O)ccc1F (single isomer, unassigned) [Example 180] , system: UniProtKB O75116.
Solution: 5.66 to 7.00

Problem: Determine reported pIC50 for COc1cccc(NC2CCN(c3ccc(-c4cn[nH]c4)c(F)c3)C2=O)c1 (single isomer, unassigned) ; test system: UniProtKB O75116.
Solution: > 8.00

Problem: Provide pIC50, recorded with UniProtKB O75116, of COc1cc(F)cc(OC2CCN(c3ccc(-c4cn[nH]c4)cc3)C2=O)c1 (stereo not shown)
Solution: 5.66 to 7.00

Problem: Find pIC50 for CNc1nc(N2CCC(Nc3cccc(OC)c3)C2=O)ccc1-c1cn[nH]c1 (single isomer, unassigned) on UniProtKB O75116 and write it down.
Solution: 7.00 to 8.00

Problem: State recorded pIC50 with UniProtKB O75116, entry COc1cccc(NC2CCN(c3ncc(-c4cn[nH]c4)cc3F)C2=O)c1 (single isomer, unassigned) , no comment.
Solution: 5.66 to 7.00

Problem: Look up and report measured pIC50 (UniProtKB O75116) for the following compound: COc1ccc(N2CCN(C3CCN(c4ccc(-c5cn[nH]c5)c(OC)n4)C3=O)CC2)cc1 (racemic) [Example 287, dihydrochloride]
Solution: 5.66 to 7.00

Problem: State pIC50 on UniProtKB O75116. Entry: COc1cc(F)cc(NC2CCN(c3ccc(-c4cn[nH]c4)nc3)C2=O)c1 (single isomer, unassigned) [Example 301]
Solution: 7.00 to 8.00

Problem: Specify the recorded pIC50 for O=C1C(Nc2cccc(F)c2)CCN1c1ccc(-c2cn[nH]c2)c(F)c1 (single isomer, unassigned) [Example 48] , system: UniProtKB O75116.
Solution: 7.00 to 8.00

Problem: Recall the reported pIC50 of O=C1C(Nc2cccc(OC(F)(F)F)c2)CCN1c1ccc(-c2cn[nH]c2)cc1 (stereo not shown) when tested on UniProtKB O75116.
Solution: 7.00 to 8.00

###

- target.entity: ROCK2 (Homo sapiens (Human), UniProt O75116)
- Sequence (O75116 whole entry, species assumed): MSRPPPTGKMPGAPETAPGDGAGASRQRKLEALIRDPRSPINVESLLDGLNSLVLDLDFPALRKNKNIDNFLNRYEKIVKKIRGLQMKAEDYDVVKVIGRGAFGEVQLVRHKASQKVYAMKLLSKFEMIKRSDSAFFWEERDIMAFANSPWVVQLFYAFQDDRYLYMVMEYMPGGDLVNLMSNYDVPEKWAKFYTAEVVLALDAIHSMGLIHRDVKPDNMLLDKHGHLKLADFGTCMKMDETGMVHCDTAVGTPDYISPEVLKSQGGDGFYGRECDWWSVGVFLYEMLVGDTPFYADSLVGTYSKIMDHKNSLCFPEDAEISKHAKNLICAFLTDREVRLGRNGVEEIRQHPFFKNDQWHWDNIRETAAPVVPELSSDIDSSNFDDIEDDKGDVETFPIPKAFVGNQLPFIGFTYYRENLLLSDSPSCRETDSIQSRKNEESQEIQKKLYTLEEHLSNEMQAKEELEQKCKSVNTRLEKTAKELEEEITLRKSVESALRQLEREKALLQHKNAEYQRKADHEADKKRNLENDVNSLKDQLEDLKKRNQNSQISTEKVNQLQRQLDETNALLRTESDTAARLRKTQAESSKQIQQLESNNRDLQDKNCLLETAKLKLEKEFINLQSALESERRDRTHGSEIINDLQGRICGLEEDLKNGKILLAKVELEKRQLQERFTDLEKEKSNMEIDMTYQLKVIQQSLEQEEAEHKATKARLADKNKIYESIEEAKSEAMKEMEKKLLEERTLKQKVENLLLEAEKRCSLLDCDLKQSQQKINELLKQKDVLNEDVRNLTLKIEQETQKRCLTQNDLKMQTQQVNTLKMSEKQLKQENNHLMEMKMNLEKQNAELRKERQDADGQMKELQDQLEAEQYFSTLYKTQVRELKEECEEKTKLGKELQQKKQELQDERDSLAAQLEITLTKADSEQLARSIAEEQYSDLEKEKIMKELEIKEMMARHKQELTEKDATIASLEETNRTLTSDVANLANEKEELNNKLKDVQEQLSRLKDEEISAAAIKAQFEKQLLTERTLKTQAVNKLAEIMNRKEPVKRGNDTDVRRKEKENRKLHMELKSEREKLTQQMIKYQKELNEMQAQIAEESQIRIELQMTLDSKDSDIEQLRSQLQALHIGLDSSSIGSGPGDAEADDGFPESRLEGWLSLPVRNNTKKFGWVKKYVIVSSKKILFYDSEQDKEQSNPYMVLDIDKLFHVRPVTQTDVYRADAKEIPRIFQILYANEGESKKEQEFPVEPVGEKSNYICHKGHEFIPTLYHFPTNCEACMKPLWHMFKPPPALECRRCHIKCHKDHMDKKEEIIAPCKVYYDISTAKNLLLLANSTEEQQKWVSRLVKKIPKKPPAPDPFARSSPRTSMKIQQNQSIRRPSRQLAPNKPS
- assay.comment: biochemical
pIC50: −log10 of the molar value.
Below, each of the molecules is paired with its reported pIC50 value.

Problem: Query pIC50 for CC(=O)Nc1cccc(NC2CCN(c3ccc(-c4cn[nH]c4)cc3)C2=O)c1 (centres unmarked)
Solution: 7.00 to 8.00

###

- target.entity: ROCK2 (Homo sapiens (Human), UniProt O75116)
- assay.comment: biochemical
// IC50 lookup, one value per entry

Recorded results for 3 compounds are shown here.
compound: COc1cc(N2CCC(Nc3cccc(OC(F)(F)F)c3)C2=O)ccc1-c1cn[nH]c1 (stereo not shown) [Example 70]
IC50: 0.1 to 2.2 µM
//
compound: CCc1cc(N2CCC(Nc3ccc(F)c(OCC4CC4)c3)C2=O)ncc1-c1cn[nH]c1 (racemic) [Example 213]
IC50: 0.1 to 2.2 µM
//
compound: COc1cccc(NC2CCN(c3ccc(-c4ccnc5[nH]ccc45)c(OC)n3)C2=O)c1 (racemic) [Example 128]
IC50: 0.01 to 0.1 µM

// next item, IC50 requested
Problem: Given the compound COc1ccc(F)c(NC2CCN(c3ccc(-c4cn[nH]c4)cc3)C2=O)c1 (single isomer, unassigned) [Example 239] , write its reported IC50.
Solution: 0.01 to 0.1 µM

###

Quick record of IC50 values for ROCK2 (Homo sapiens (Human), UniProt O75116).

compound: COc1cc(F)cc(NC2CCN(c3ccc(-c4cn[nH]c4)c(F)c3)C2=O)c1 (single isomer, unassigned) [Example 50]
target.entity: ROCK2 (Homo sapiens (Human), UniProt O75116)
IC50: < 10 nM
--
compound: COc1ccc(NC2CCN(c3ccc(-c4cn[nH]c4)c(OC)c3)C2=O)cc1F (single isomer, unassigned) [Example 142]
target.entity: ROCK2 (Homo sapiens (Human), UniProt O75116)
IC50: 100 to 2200 nM

With those in mind, consider the next compound.
Problem: Answer with the recorded IC50 of COc1cccc(NC2CCN(c3ccc(-c4cn[nH]c4)c(OC)n3)C2=O)c1 (single isomer, unassigned) [Example 197] only.
Solution: < 10 nM

###

- target.entity: ROCK2 (Homo sapiens (Human), UniProt O75116)
- assay.comment: biochemical
pIC50: −log10 of the molar value.
measured.endpoint: pIC50

The following compounds have reported results that may help.
compound: O=C1[C@H](Nc2ccc3c(c2)OCO3)CCN1c1ccc(-c2cn[nH]c2)cc1
target.entity: ROCK2 (Homo sapiens (Human), UniProt O75116)
pIC50: 7.00 to 8.00
//
compound: COc1nc(N2CCC(Nc3cccc(NC(C)=O)c3)C2=O)ccc1-c1cn[nH]c1 (racemic)
target.entity: ROCK2 (Homo sapiens (Human), UniProt O75116)
pIC50: > 8.00
//
compound: COc1c(F)cccc1NC1CCN(c2ccc(-c3cn[nH]c3)c(OC(F)F)c2)C1=O (single isomer, unassigned) [Example 33]
target.entity: ROCK2 (Homo sapiens (Human), UniProt O75116);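 also: rho kinase enzyme reaction halted with EDTA, phospho- and non-phospho peptide separated for read-out, kinase activity inhibition derived across a dose-response series, DMSO under 2%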
pIC50: 7.00 to 8.00

Please examine the following record next.
Problem: Specify measured pIC50 for COc1cccc(N(C)C2CCN(c3ccc(-c4cn[nH]c4)cc3)C2=O)c1 (single isomer, unassigned) [Example 31] .
Solution: 5.66 to 7.00

Entry source: patent US10112929B2
